meta.source: the supplement of paper PMC10567573

variants and their reported protein stability index
B1: GFOD1 (parent)
chain: EEAEELAKEMSVPFYTSRIDEVLL

Variants of: B1
Experiment: protein stability index of a GFP-peptide fusion (GPS, HEK-293T) (PSI 1-6); higher = more stable;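 also: lentivirally expressed fusions sorted by FACS into six bins by GFP to DsRed ratio, PSI derived from sequencing read proportions per bin multiplied by bin number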
Settings: c terminus: a fixed tail appended
METRIC NAME: protein stability index

mutation_id=A7N quantitative_readout=4.02
mutation_id=L6F quantitative_readout=3.93
mutation_id=K8R quantitative_readout=4.04
mutation_id=E4Q quantitative_readout=3.9
mutation_id=I19T quantitative_readout=4.11
